Answer each item with its documented DC50.
Target: BRM (Homo sapiens, UniProt P51531)
Sequence (P51531 whole entry): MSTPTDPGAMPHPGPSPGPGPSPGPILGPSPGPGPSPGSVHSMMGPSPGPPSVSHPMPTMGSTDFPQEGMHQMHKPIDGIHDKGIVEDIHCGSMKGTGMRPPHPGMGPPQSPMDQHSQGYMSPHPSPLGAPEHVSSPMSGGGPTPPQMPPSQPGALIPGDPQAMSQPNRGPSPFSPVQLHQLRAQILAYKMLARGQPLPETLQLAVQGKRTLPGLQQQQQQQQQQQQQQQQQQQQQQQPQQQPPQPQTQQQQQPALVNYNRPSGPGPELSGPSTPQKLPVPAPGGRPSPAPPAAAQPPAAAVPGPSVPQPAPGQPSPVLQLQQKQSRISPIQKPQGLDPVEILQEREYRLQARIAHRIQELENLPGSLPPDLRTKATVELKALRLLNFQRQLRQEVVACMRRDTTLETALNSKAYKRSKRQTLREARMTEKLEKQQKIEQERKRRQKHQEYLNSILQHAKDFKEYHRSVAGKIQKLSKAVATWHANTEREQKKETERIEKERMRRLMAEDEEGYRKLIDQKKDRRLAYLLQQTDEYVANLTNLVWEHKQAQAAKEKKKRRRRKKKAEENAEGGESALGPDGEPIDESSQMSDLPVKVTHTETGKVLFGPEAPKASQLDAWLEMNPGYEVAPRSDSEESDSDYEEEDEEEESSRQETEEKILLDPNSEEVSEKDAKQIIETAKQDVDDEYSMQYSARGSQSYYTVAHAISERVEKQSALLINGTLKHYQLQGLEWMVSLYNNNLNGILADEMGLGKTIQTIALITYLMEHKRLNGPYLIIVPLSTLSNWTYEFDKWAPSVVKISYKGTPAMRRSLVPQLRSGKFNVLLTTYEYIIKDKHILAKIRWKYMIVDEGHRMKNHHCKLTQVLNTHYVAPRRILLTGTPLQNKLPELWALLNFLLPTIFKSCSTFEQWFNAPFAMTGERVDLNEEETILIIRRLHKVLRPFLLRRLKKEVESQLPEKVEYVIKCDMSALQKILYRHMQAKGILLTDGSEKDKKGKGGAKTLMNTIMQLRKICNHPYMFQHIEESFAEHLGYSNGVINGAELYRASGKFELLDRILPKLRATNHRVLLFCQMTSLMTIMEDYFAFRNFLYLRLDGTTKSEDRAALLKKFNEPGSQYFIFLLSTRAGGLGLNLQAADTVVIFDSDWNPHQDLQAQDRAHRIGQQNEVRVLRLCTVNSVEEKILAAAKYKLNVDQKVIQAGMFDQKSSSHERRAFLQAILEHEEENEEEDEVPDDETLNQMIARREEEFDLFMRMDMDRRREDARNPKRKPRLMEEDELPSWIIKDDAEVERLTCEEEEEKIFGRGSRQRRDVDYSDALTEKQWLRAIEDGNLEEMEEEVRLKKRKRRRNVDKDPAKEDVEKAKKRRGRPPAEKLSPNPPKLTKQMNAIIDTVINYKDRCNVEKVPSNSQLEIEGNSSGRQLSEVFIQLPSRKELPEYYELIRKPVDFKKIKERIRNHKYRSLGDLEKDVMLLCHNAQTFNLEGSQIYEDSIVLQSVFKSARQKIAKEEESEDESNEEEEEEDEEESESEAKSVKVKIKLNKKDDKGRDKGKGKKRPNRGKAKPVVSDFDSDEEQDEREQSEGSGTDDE
Test: Immunofluorescence assay for BRM degradation in SW1573 cells
Assay type: cell-based
Parameters: treated overnight at 4° C. with either BRM primary antibody (Cell signaling Cat #11966) or BRG primary antibody; endogenous in cells; host or cells: SW1573
Conditions: 20 hours incubation, immunofluorescence mean nuclear signal, read-out: BRM IF Degradation IC50

# count of solved cases: 4
| Compound | DC50 |
| --- | --- |
| CC1(F)CCCCN(CC#Cc2cc(N3C4CCC3CN(c3cc(-c5ccccc5O)nnc3N)C4)ccn2)C1 (stereo not drawn) | 0.01 to 0.1 µM |
| Nc1nnc(-c2ccccc2O)cc1N1CC2CCC(C1)N2c1ccnc(C#CCN2C3CCC(C3)C2CO)c1 (stereo not drawn) | < 0.01 µM |
| Nc1nnc(-c2ccccc2O)cc1N1CC2CCC(C1)N2c1ccnc(C#CCN2CCCOCC23CC3)c1 | < 0.01 µM |
| Nc1nnc(-c2ccccc2O)cc1N1CC2CCC(C1)N2c1ccnc(C#CCN2C3COCC2CC(F)C3)c1 (stereo not drawn) | > 0.1 µM |

Hi, could you look up DC50 for each item in my list?
1. Nc1nnc(-c2ccccc2O)cc1N1CC2CCC(C1)N2c1ccnc(C#CC2CNCCO2)c1 (stereo not drawn)
2. Nc1nnc(-c2ccccc2O)cc1N1CC2CCC(C1)N2c1ccnc(C#CCN2CCn3cccc3C2)c1
3. Nc1nnc(-c2ccccc2O)cc1N1CC2CCC(C1)N2c1ccnc(C#CCN2CCC(F)CC2)c1
4. Nc1nnc(-c2ccccc2O)cc1N1CCC2(CCN(c3ccnc(C#CCN4CCCCCC4)c3)CC2)CC1
5. Nc1nnc(-c2ccccc2O)cc1N1CC2CCC(C1)N2c1ccnc(C#CCN2CC3C4CCC(C4)C32)c1 (stereo not drawn)
6. Nc1nnc(-c2ccccc2O)cc1N1CC2CCC(C1)N2c1cc(C#CCN2CCCCCC2)ncn1

["< 0.01 µM", "0.01 to 0.1 µM", "< 0.01 µM", "< 0.01 µM", "> 0.1 µM", "< 0.01 µM"]

Hi, could you look up DC50 for each item in my list?
1. Nc1nnc(-c2ccccc2O)cc1N1CC2CCC(C1)N2c1ccnc(C#CCN2CCOCC23CC3)c1
2. Nc1nnc(-c2ccccc2O)cc1N1CC2CCC(C1)N2c1ccnc(C#CCN2CCC3(CCOC3)C2)c1 (stereo not drawn)
3. CNC(=O)[C@H]1CCN(CC#Cc2cc(N3C4CCC3CN(c3cc(-c5ccccc5O)nnc3N)C4)ccn2)C1
4. Nc1nnc(-c2ccccc2O)cc1N1CC2CCC(C1)N2c1ccnc(C#CCN2C[C@H]3OCC[C@H]32)c1

1. > 0.1 µM
2. < 0.01 µM
3. 0.01 to 0.1 µM
4. < 0.01 µM

###

Target: BRG1 (Homo sapiens)
Construct: either BRM primary antibody (Cell signaling Cat #11966) or BRG primary antibody (Abcam, ab 110641); endogenous in cells; host or cells: SW1573
Test: Immunofluorescence assay for BRG1 degradation in SW1573 cells
Assay type: cell-based
Conditions: 20 hours incubation, immunofluorescence mean nuclear signal, read-out: BRG1 IF Degradation IC50
Answer each item with its documented DC50.

| Compound | Assayed System | DC50 |
| --- | --- | --- |
| CS(=O)(=O)C1CN(CC#Cc2cc(N3C4CCC3CN(c3cc(-c5ccccc5O)nnc3N)C4)ccn2)C1 | BRG1 (Homo sapiens) | > 100 nM |
| Nc1nnc(-c2ccccc2O)cc1N1CC2CCC(C1)N2c1ccnc(C#CCN2CCOCC2)c1 | BRG1 (Homo sapiens) | < 10 nM |
| Nc1nnc(-c2ccccc2O)cc1N1CC2CCC(C1)N2c1ccnc(C#CCN2CC3CC2CC3(F)F)c1 (stereo not shown) | BRG1 (Homo sapiens) | < 10 nM |
| Oc1ccccc1-c1cc2c(nn1)NC[C@H]1CN(c3ccnc(C#CCN4CCCCCC4)c3)CCN21 (single isomer, unassigned) | BRG1 (Homo sapiens) | < 10 nM |
| Nc1nnc(-c2ccccc2O)cc1N1CC2CCC(C1)N2c1ccnc(C#CCN2CCC23CCCOC3)c1 (stereo not shown) | BRG1 (Homo sapiens) | < 10 nM |

Hi, could you look up DC50 for each item in my list?
1. Nc1nnc(-c2ccccc2O)cc1N1CC2CCC(C1)N2c1ccnc(C#CCN2CCCCCC2)c1
2. Nc1nnc(-c2ccccc2O)cc1N1CC2CCC(C1)N2c1ccnc(C#CCN2CCNCC2=O)c1

1. < 10 nM
2. > 100 nM

###

Answer each item with its documented DC50.
Target: BRG1 (Homo sapiens)
Construct: either BRM primary antibody (Cell signaling Cat #11966) or BRG primary antibody (Abcam, ab 110641); endogenous in cells; host or cells: SW1573
Assay: Immunofluorescence assay for BRG1 degradation in SW1573 cells
Type: cell-based
Settings: 20 hours incubation, immunofluorescence mean nuclear signal, read-out: BRG1 IF Degradation IC50

| Compound | DC50 |
| --- | --- |
| Nc1nnc(-c2ccccc2O)cc1N1CC2CCC(C1)N2c1ccnc(C#CCN2C[C@H]3CC[C@@H]2C3)c1 | < 10 nM |
| Nc1nnc(-c2ccccc2O)cc1N1CC2CCC(C1)N2c1ccnc(C#CCN2C[C@@H]3C[C@H]2C[C@H]3O)c1 | 10 to 100 nM |
| Nc1nnc(-c2ccccc2O)cc1N1CC2CCC(C1)N2c1ccnc(C#CCN2CC3(CC(O)C3)C2)c1 | 10 to 100 nM |

Record Nc1nnc(-c2ccccc2O)cc1N1CC2CCC(C1)N2c1ccnc(C#CCN2CC3CCC3C2)c1 (stereo not shown) ; system BRG1 (Homo sapiens); DC50 = < 10 nM

###

Molecular target: BRM (Homo sapiens, UniProt P51531)
Assay: Immunofluorescence assay for BRM degradation in SW1573 cells
Type: cell-based
Design: treated overnight at 4° C. with either BRM primary antibody (Cell signaling Cat #11966) or BRG primary antibody; endogenous in cells; host or cells: SW1573
Conditions: 20 hours incubation, immunofluorescence mean nuclear signal, read-out: BRM IF Degradation IC50
Answer each item with its documented DC50.

Hi, could you look up DC50 for each item in my list?
1. CCN(CC)CC#Cc1cc(N2C3CCC2CN(c2cc(-c4ccccc4O)nnc2N)C3)ccn1
2. Nc1nnc(-c2ccccc2O)cc1N1CC2CCC(C1)N2c1ccnc(C#CCN2CCC(F)(F)C2)c1
3. Nc1nnc(-c2ccccc2O)cc1N1CC2CCC(C1)N2c1ccnc(C#CCN2CC3CC2CO3)c1 (stereo not drawn)
4. Nc1nnc(-c2ccccc2O)cc1N1CC2CCC(C1)N2c1ccnc(C#CCN2CCC(O)C2)c1 (stereo not drawn)
5. Nc1nnc(-c2ccccc2O)cc1N1CC2CCC(C1)N2c1ccnc(C#CCN2CCC23CCOC3)c1 (stereo not drawn) [Compound 69]

< 10 nM
10 to 100 nM
< 10 nM
10 to 100 nM
< 10 nM

###

Biological target: BRG1 (Homo sapiens, UniProt P51532)
Construct: either BRM primary antibody (Cell signaling Cat #11966) or BRG primary antibody (Abcam, ab 110641); endogenous in cells; host or cells: SW1573
Sequence (P51532 whole entry): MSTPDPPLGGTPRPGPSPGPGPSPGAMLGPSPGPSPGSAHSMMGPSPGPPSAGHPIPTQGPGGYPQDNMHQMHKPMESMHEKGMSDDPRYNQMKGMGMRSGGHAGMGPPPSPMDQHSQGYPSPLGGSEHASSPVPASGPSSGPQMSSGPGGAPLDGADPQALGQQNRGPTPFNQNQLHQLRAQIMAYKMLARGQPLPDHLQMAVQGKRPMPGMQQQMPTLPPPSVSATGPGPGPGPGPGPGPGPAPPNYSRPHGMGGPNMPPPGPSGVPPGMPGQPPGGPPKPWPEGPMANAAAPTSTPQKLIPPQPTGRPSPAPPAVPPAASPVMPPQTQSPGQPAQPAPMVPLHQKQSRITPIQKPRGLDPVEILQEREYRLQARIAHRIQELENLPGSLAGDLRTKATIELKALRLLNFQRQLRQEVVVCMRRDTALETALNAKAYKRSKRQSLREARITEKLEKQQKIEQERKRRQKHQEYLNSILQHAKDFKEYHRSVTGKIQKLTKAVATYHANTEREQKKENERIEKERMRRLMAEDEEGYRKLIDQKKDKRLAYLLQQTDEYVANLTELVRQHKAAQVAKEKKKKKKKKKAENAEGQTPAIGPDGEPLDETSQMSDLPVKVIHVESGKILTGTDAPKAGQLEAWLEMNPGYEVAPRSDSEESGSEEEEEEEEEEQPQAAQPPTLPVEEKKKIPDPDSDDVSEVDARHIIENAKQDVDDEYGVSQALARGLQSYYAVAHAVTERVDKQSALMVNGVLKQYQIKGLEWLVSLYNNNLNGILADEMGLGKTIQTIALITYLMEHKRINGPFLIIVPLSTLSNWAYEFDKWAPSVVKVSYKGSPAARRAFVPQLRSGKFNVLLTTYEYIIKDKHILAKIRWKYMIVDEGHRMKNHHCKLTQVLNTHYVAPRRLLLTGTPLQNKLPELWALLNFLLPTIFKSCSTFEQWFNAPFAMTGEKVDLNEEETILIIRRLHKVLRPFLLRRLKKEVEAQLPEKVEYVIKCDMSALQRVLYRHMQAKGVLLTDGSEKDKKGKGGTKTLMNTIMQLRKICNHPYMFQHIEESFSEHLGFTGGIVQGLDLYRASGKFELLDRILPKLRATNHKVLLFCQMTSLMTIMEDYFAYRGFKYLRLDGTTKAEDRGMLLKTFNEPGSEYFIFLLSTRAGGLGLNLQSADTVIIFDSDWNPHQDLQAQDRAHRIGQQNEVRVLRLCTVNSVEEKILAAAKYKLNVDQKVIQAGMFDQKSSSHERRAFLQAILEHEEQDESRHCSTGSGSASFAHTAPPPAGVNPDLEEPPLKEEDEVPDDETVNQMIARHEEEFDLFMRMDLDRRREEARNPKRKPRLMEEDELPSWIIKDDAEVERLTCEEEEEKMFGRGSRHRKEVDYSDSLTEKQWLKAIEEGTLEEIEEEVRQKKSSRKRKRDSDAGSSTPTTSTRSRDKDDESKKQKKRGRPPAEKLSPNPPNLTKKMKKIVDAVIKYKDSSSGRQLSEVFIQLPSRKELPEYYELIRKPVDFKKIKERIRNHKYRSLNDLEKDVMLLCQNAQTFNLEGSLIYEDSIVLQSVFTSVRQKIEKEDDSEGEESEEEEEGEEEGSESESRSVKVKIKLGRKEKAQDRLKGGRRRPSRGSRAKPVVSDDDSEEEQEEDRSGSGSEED
Experiment: Immunofluorescence assay for BRG1 degradation in SW1573 cells
Format: cell-based
Details: 20 hours incubation, immunofluorescence mean nuclear signal, read-out: BRG1 IF Degradation IC50
Procedure: Example B-2: Immunofluorescence Assay for BRM and BRG1 Degraders SW1573 cells were seeded at 3000 cells/well in 384 well plates. The next day, compounds were added using an Echo dispenser. […] Harmony software (Perking Elmer) was used to quantify the mean nuclear signaling intensity of BRM or BRG signaling per cell in each well. Dose responses were determined from the concentration dependent response of mean nuclear signal intensity with data normalized to a known degrader control. […]
Parameter: DC50

# count of solved cases: 5
| Compound | DC50 |
| --- | --- |
| Nc1nnc(-c2ccccc2O)cc1N1CC2CCC(C1)N2c1ccnc(C#CCN2CCC(CO)CC2)c1 | 10 to 100 nM |
| Nc1nnc(-c2ccccc2O)cc1N1CC2CCC(C1)N2c1ccnc(C#CCCN2CCNCC2)c1 | > 100 nM |
| CC1CCN(CC#Cc2cc(N3C4CCC3CN(c3cc(-c5ccccc5O)nnc3N)C4)ccn2)CCC1O (centres unmarked) | < 10 nM |
| CO[C@H]1CCN(CC#Cc2cc(N3C4CCC3CN(c3cc(-c5ccccc5O)nnc3N)C4)ccn2)C1 | < 10 nM |
| Nc1nnc(-c2ccccc2O)cc1N1CC2CCC(C1)N2c1ccnc(C#CCN2CC3CCCC(C2)O3)c1 | > 100 nM |

Hi, could you look up DC50 for each item in my list?
1. Nc1nnc(-c2ccccc2O)cc1N1CC2CCC(C1)N2c1ccnc(C#CCCO)c1
2. Nc1nnc(-c2ccccc2O)cc1N1CC2CCC(C1)N2c1cc(C#CCN2CCCCCC2)ncn1

["> 100 nM", "< 10 nM"]

GET /value?item= Nc1nnc(-c2ccccc2O)cc1N1CC2CCC(C1)N2c1ccnc(C#CCN2Cc3cn[nH]c3C2)c1 &field=DC50 returns 10 to 100 nM
